These data points were gathered from ChEMBL document CHEMBL1140512.

assay: AUC (0 to 24 hrs) in rat at 3 mg/kg, po; type: ADME, organism-based; set-up: time < 24 hr, dose 3 mg/kg, route oral; conditions: plasma
measure-name: AUC(0-t) at 24 h (ng·h/mL)
Numbers only, in ng·h/mL.

stdin: Input "Cc1c(C(C)(C)C)s/c(=N\C(=O)c2cccc(C(F)(F)F)c2)n1CC1CC1" , output reported AUC(0-t) at 24 h.
stdout: 326

---

experiment: Half life in rat at 30 mg/kg, po; type: ADME, organism-based; set-up: dose 30 mg/kg, route oral; conditions: in vivo
measure-name: half-life
Answer by giving the amount and then stating its unit.

stdin: Input "Cc1c(C(C)(C)C)s/c(=N\C(=O)c2cccc(C(F)(F)F)c2)n1CC1CC1" , output reported half-life.
stdout: 4.7 h
